Biological target: T1, recombinant human CD123-Fc (human, UniProt P26951 19-305)
T1 construct: not shown: Fc part of CD123-Fc
T1 sequence: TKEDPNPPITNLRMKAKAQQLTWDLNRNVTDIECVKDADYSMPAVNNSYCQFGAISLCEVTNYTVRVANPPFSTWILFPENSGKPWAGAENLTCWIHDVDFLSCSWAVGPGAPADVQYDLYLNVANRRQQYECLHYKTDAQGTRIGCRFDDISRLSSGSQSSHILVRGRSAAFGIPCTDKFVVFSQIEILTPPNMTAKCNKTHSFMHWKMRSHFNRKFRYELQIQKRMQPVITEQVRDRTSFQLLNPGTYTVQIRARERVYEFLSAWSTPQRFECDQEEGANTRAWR
Assay: phage ELISA, captured CD123-Fc
READOUT_LABEL: ELISA_avg (ratio A450 target/IgG1-Fc)
Please respond with the number in ratio A450 target/IgG1-Fc and leave the unit unwritten.

BINDER: SEQ ID NO: 427 (designed binder, D domain, on phage) MGSWIEFEVRLDAIYNRLAALGGSEAELAAFEKEIAAFESELQAYKGKGNPEVERLRRYAANIRHELQAYRHN
RESULT_UNITS: ratio A450 target/IgG1-Fc
ELISA_avg: 20.8

# binder SEQ ID NO: 322 (designed binder, D domain, on phage) MGSWYEFETRLEAIYDRLWALGGSEAELAAFEKEIAAFESELQAYKGKGNPEVELLRVEAAEIREDLQAYRHN ; its ELISA_avg = 3.2

Record summary for SEQ ID NO: 625 (designed binder, D domain, on phage) MGSWYEFEQRLEAIEWRLGALGGSEAELATFEEDIADFEEWLQEYKGKGNPEVEALQYEAYAIAEELHAYRHN : reported ELISA_avg = 4.4

Entry SEQ ID NO: 498 (designed binder, D domain, on phage) MGSWMYFKDTLADIKWYLEALGGSEAELAFFEDWIAEFEDDLQVYKGKGNPEVEALRKEAAAIRDELQAYRHN — recorded ELISA_avg = 3.1

The recorded ELISA_avg for SEQ ID NO: 532 (designed binder, D domain, on phage) MGSWFEFKWTLALIKQELEALGGSEAELADFEQEIAEFEWWLQTYKGKGNPEVEALRKEAAAIRDELQAYRHN is 4.9

# ELISA_avg (binder: SEQ ID NO: 572 (designed binder, D domain, on phage) MGSWAEFDSRLIAIFDRLWALGGSEAELAWFEDDIAQFEQHLQAYKGKGNPEVEALRQEADAITFELKAYRHN ) is 3.6

Memo: SEQ ID NO: 388 (designed binder, D domain, on phage) MGSWTEFYNRLDAIDQRLWALGGSEAELAAFEKEIAAFESELQAYKGKGNPEVEMLREYAADIRTDLQAYRHN , reported ELISA_avg: 3.3

ELISA_avg measured on SEQ ID NO: 548 (designed binder, D domain, on phage) MGSWTEFDDRLFAIYWRLDALGGSEAELAWFEEVIAEFENDLQVYKGKGNPEVEALDDEAHAISIELEAYRHN = 6.4

// ELISA_avg value for SEQ ID NO: 613 (designed binder, D domain, on phage) MGSWYEFMGRLEAIDERLQALGGSEAELAWFEHEIAEFEWSLQWYKGKGNPEVEALRFEAGAIPWELWAYRHN : 3.5

// SEQ ID NO: 537 (designed binder, D domain, on phage) MGSWYEFDHRLDAIYQRLWALGGSEAELAEFEYGIAEFEEYLQDYKGKGNPEVEALISEAWAIEWELSAYRHN : ELISA_avg value = 4.6

The recorded ELISA_avg for SEQ ID NO: 568 (designed binder, D domain, on phage) MGSWYEFDDRLWAIFDRLFALGGSEAELAFFEDSIAEFEEELQHYKGKGNPEVEALYLEAWAIENELGAYRHN is 4.7
